Origin of the recorded values: ChEMBL document CHEMBL4118267

- Test system: Plasmodium falciparum
- experiment summary: Antimalarial activity against Plasmodium falciparum 3D7 infected in human erythrocytes after 72 hrs by SYBR green dye fluorescence assay
- Assay type: functional, organism-based
- test parameters: 3D7, 72 h
observable: pEC50
Friendly reminder that pEC50 comes from taking -log10 of the concentration in mol/L.

// below: answered compounds
IN: Return pEC50 (reported value) for this compound: C[C@H]1[C@H](OC(=O)CCC(=O)O)O[C@@H]2O[C@@]3(C)CC[C@H]4[C@H](C)CC[C@@H]1[C@@]24OO3 [ARTESUNATE]
OUT: 8.01

IN: Return pEC50 (reported value) for this compound: COc1cc(CCCOC(=O)C[C@H]2O[C@@H]3O[C@@]4(C)CC[C@H]5[C@H](C)CC[C@@H]([C@H]2C)[C@@]35OO4)cc2cc(-c3ccc4c(c3)OCO4)oc12
OUT: 7.88

IN: Return pEC50 (reported value) for this compound: COc1ccc(-c2cc3cc(CCCO[C@H]4O[C@@H]5O[C@@]6(C)CC[C@H]7[C@H](C)CC[C@@H]([C@H]4C)[C@@]57OO6)cc(OC)c3o2)cc1OC
OUT: 8.19

IN: Return pEC50 (reported value) for this compound: CCN(CC)CCCC(C)Nc1ccnc2cc(Cl)ccc12 (configuration not stated) [CHLOROQUINE]
OUT: 8.01

IN: Return pEC50 (reported value) for this compound: COc1ccc(-c2cc3cc(CCCO)cc(OC)c3o2)cc1OC
OUT: 4.58

# ---- query compound ----
IN: Return pEC50 (reported value) for this compound: COc1cc(CCCOC(=O)CCCc2ccc(N(CCCl)CCCl)cc2)cc2cc(-c3ccc4c(c3)OCO4)oc12
OUT: 4.63

====

- Tested on: CCRF-CEM
- experiment summary: Cytotoxicity against human CCRF-CEM cells assessed as reduction in cell viability after 72 hrs by resazurin dye based assay
- Type: functional
- test parameters: Homo sapiens, CCRF-CEM, 72 h; read-out: EC50
observable: EC50 (µM)
Please give a number only; it is taken to be in µM.

// below: answered molecules
IN: Report its EC50 with CCRF-CEM as the test system: COc1cc(CCCO[C@H]2O[C@@H]3O[C@@]4(C)CC[C@H]5[C@H](C)CC[C@@H]([C@H]2C)[C@@]35OO4)cc2cc(-c3ccc4c(c3)OCO4)oc12
OUT: 0.099

IN: Report its EC50 with CCRF-CEM as the test system: C[C@H]1[C@H](OC(=O)CCC(=O)O)O[C@@H]2O[C@@]3(C)CC[C@H]4[C@H](C)CC[C@@H]1[C@@]24OO3 [ARTESUNATE]
OUT: 0.069

IN: Report its EC50 with CCRF-CEM as the test system: COc1ccc(-c2cc3cc(CCCO[C@H]4O[C@@H]5O[C@@]6(C)CC[C@H]7[C@H](C)CC[C@@H]([C@H]4C)[C@@]57OO6)cc(OC)c3o2)cc1OC
OUT: 0.072

IN: Report its EC50 with CCRF-CEM as the test system: CC1=CC(=O)C(C(C)C)=CC1=O
OUT: 0.3

IN: Report its EC50 with CCRF-CEM as the test system: COc1cc(CCCO)cc2cc(-c3ccc4c(c3)OCO4)oc12
OUT: 24.7

IN: Report its EC50 with CCRF-CEM as the test system: COc1cc(CCCOC(=O)C[C@H]2O[C@@H]3O[C@@]4(C)CC[C@H]5[C@H](C)CC[C@@H]([C@H]2C)[C@@]35OO4)cc2cc(-c3ccc4c(c3)OCO4)oc12
OUT: 0.568

***
IN: Report its EC50 with CCRF-CEM as the test system: COc1cc(CC/C=N/C2=C(C)C(=O)C=C(C(C)C)C2=O)cc2cc(-c3ccc4c(c3)OCO4)oc12
OUT: 43.7

IN: Report its EC50 with CCRF-CEM as the test system: C[C@@H]1CC[C@H]2[C@@H](C)C(=O)O[C@@H]3O[C@@]4(C)CC[C@@H]1[C@]32OO4
OUT: 36.9

IN: Report its EC50 with CCRF-CEM as the test system: COc1cccc2c1C(=O)c1c(O)c3c(c(O)c1C2=O)C[C@@](O)(C(=O)CO)C[C@@H]3O[C@H]1C[C@H](N)[C@H](O)[C@H](C)O1
OUT: 0.015

IN: Report its EC50 with CCRF-CEM as the test system: COc1cc(CCCOC(=O)CCC(=O)O[C@@H]2O[C@@H]3O[C@@]4(C)CC[C@H]5[C@H](C)CC[C@@H]([C@H]2C)[C@@]35OO4)cc2cc(-c3ccc4c(c3)OCO4)oc12
OUT: 0.18

IN: Report its EC50 with CCRF-CEM as the test system: C[C@H]1[C@@H](O)O[C@@H]2O[C@@]3(C)CC[C@H]4[C@H](C)CC[C@@H]1[C@@]24OO3
OUT: 0.085
